- measurement target: T1, Human CXCR2 (human, UniProt P25025 1-360)
- T1 construct: Some cell lines carry an N-terminal 3xHA tag; also called hCXCR2; huCXCR2
- T1 sequence: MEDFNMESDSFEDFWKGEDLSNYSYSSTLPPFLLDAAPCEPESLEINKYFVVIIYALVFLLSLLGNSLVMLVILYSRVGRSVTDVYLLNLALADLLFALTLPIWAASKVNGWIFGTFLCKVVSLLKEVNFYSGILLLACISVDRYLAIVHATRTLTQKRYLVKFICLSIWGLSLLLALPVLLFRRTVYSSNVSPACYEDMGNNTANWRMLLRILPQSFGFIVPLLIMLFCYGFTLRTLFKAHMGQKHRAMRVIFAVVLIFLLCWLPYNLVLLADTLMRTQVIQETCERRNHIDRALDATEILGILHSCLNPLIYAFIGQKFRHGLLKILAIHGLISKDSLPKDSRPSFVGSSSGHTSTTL
- test description: FACS competition vs 3 nM FMAT-Blue Gro-α
quantity kind: IC50 (nM)
Give just the numeric value; nM need not be written.

Example entries begin here.
CXCR20033 (bispecific antibody, Biparatopic: two VHH joined by a GlySer linker; also called 163E3-35GS-2B2; 163E3-2B2; not shown: C-terminal c-myc tag and His6 tag coded by pAX100) EVQLVESGGGLVQPGGSLRLSCVASGRIFSSNAMGWFRQAPGKEREFVAAITWRSGGSAYYADSAKGRFTISRDNAKNTVYLQMNSLKPEDTAVYYCAAGGSSWLSFPPDYWGQGTQVTVSSGGGGSGGGGSGGGGSGGGGSGGGGSGGGGSGGGGSEVQLVESGGELVQPGGSLRLSCAASGSILTINAMGWYRQAPGKQRELVVRRTRGGSTTYQDSVKGRFTISADIAKKTMYLQMNSLKPEDTAVYYCMLDDRGGVYWGQGTQVTVSS : 0.65
CXCR20018 (other, Two different VHH joined by a GlySer linker; also called 137B7-35GS-97A9; not shown: C-terminal c-myc tag and His6 tag coded by pAX100) EVQLVESGGGLVQPGGSVRLSCVASGIIFRLSALGWTRQGPGKAREWVAGINSDGTTNYADPVKGRFTISRDNAKNTIYLHMDMLKPEDTAVYYCASGKYRGQGTQVTVSSGGGGSGGGGSGGGGSGGGGSGGGGSGGGGSGGGGSEVQLVESGGGLVQPGGSLRLSCVASGSIVRINTMGWYRQTPGKQRELVADITSGGNINYIDAVKGRFTISRDNTKNTVYLQMNSLKPEDTAVYYCNAEIVVLVGVWTQRARTGNYWGQGTQVTVSS : 1.9
CXCR20019 (VHH, Bivalent: two VHH joined by a 9GS linker; also called 2B2-9GS-2B2; not shown: C-terminal c-myc tag and His6 tag coded by pAX100) EVQLVESGGELVQPGGSLRLSCAASGSILTINAMGWYRQAPGKQRELVVRRTRGGSTTYQDSVKGRFTISADIAKKTMYLQMNSLKPEDTAVYYCMLDDRGGVYWGQGTQVTVSSGGGGSGGGSEVQLVESGGELVQPGGSLRLSCAASGSILTINAMGWYRQAPGKQRELVVRRTRGGSTTYQDSVKGRFTISADIAKKTMYLQMNSLKPEDTAVYYCMLDDRGGVYWGQGTQVTVSS : 0.044
CXCR20035 (other, Biparatopic: two VHH joined by a GlySer linker; also called 54B12-35GS-163E3; 54B12-163E3; not shown: C-terminal c-myc tag and His6 tag coded by pAX100) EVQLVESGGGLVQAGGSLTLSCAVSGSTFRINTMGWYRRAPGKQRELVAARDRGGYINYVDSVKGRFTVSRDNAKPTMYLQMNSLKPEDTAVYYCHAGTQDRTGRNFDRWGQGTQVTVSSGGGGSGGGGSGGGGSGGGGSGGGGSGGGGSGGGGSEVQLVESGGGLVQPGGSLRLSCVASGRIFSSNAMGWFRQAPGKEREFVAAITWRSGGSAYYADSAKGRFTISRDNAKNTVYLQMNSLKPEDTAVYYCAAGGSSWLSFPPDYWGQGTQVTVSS : 1

Proceed to the following item.
Look up IC50: CXCR20012 (other, Bivalent: two VHH joined by a GlySer linker; also called 137B7-35GS-137B7; not shown: C-terminal c-myc tag and His6 tag coded by pAX100) EVQLVESGGGLVQPGGSVRLSCVASGIIFRLSALGWTRQGPGKAREWVAGINSDGTTNYADPVKGRFTISRDNAKNTIYLHMDMLKPEDTAVYYCASGKYRGQGTQVTVSSGGGGSGGGGSGGGGSGGGGSGGGGSGGGGSGGGGSEVQLVESGGGLVQPGGSVRLSCVASGIIFRLSALGWTRQGPGKAREWVAGINSDGTTNYADPVKGRFTISRDNAKNTIYLHMDMLKPEDTAVYYCASGKYRGQGTQVTVSS 0.606

Origin of values: patent US20130330346A1
